These data points were gathered from patent US20260242735A1.

The entries below are paired with their reported Mean % WT Binding.
target: human CD33 R144A (human, UniProt P20138 18-364); assay: flow cytometry on HEK293-T, alanine scan
Sequence (P20138 18-364 R144A limits assumed): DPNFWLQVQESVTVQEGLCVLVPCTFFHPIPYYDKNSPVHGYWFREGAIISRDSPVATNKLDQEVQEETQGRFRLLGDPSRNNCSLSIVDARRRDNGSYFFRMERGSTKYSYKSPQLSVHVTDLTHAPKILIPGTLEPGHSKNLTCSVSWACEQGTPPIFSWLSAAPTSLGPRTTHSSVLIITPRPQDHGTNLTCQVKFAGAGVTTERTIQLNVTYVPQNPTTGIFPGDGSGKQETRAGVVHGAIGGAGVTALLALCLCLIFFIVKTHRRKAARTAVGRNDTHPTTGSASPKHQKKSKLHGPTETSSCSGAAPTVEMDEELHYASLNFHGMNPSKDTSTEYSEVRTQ
Supply the numeric figure in % WT binding, leaving out any unit text.

Example results:
{"binder": "Refmab #4 (antibody, V domains shown, The alanine scan used IgG or Fab) VH: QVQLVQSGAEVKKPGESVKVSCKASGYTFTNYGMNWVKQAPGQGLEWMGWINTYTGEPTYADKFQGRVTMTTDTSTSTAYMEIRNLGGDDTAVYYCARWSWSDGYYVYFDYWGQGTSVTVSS VL: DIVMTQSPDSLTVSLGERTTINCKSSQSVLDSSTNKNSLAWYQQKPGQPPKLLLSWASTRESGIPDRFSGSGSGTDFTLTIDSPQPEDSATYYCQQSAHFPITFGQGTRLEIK", "unit-annotation": "% WT binding", "Mean % WT Binding": 99.7}
{"binder": "Refmab #1 (antibody, V domains shown, The alanine scan used IgG or Fab; also called hP67.6) VH: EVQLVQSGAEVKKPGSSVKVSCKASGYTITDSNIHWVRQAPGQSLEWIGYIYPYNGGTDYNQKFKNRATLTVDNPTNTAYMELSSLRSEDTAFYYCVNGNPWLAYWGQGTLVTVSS VL: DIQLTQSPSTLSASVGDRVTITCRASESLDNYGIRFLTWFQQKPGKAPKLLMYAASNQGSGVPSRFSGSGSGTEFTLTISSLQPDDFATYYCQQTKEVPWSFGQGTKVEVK", "unit-annotation": "% WT binding", "Mean % WT Binding": 110}

// next item, Mean % WT Binding requested
Name the reported Mean % WT Binding value associated with the binder Refmab #2 (antibody, V domains shown, The alanine scan used IgG or Fab) VH: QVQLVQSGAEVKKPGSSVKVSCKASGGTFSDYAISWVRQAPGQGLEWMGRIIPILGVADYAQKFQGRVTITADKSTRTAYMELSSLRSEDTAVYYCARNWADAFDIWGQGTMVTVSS VL: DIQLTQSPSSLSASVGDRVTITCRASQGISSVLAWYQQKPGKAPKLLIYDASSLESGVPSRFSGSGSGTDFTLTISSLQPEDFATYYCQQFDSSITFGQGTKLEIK 112
